Each recorded value in this set is attributed to ChEMBL document CHEMBL4130630.

# target_under_test: Sodium- and chloride-dependent GABA transporter 1 (Mus musculus, UniProt P31648)
# measurement_notes: Inhibition of mouse GAT1 expressed in HEK293 cells assessed as reduction in [3H]GABA uptake preincubated cells with photoirradiated compound for 25 mins followed by [3H]GABA addition measured after 4 mins by liquid scintillation counting method
# Assay type: cell-based
So I've got a bunch of molecules here, and I need their IC50 values.
Give bare numbers, in µM.

>>> recorded_measurement("O=C(O)[C@@H]1CCCN(CCC#Cc2cccc(N=Nc3ccccc3)c2)C1 (mixture of isomers)")
0.417
>>> recorded_measurement("O=C(O)C1CCCN(CCCC=Cc2ccc(N=Nc3ccccc3)cc2)C1 (mixture of isomers)")
23.4
>>> recorded_measurement("O=C(O)C1CCCN(CCCC=Cc2cccc(N=Nc3cccc4ccccc34)c2)C1 (mixture of isomers)")
10
>>> recorded_measurement("O=C(O)C1CCCN(CCCC#Cc2cccc(N=Nc3cccc4ccccc34)c2)C1 (mixture of isomers)")
13.8

I need IC50 for every entry listed below, if you could help.
1. O=C(O)C1CCCN(CCCC=Cc2ccc(N=Nc3cccc4ccccc34)cc2)C1 (mixture of isomers)
2. O=C(O)C1CCCN(CCC=Cc2ccc(N=Nc3ccccc3)cc2)C1 (mixture of isomers)
3. O=C(O)C1CCCN(CCCC=Cc2cccc(N=Nc3ccccc3)c2)C1 (mixture of isomers)
4. O=C(O)C1CCCN(CCC#Cc2ccc(N=Nc3ccccc3)cc2)C1 (mixture of isomers)

Solution:
[6.17, 37.2, 25.1, 2.57]
